Entry source: patent US9855230B2

EC50 values for the molecules below.
# System: recombinant NL4-3 virus (nef section replaced with Renilla luciferase gene) in MT-2 cells
# assay_info: whole plant or invertebrate
# Format: cell-based, HIV
# test_parameters: NL43, luciferase activity in MT-2 cells infected 4-5 days with recombinant NL4-3 virus, read-out: Activity
Structures can show the parent of a compound that is named as a salt.
experimental_endpoint: EC50

* COc1ccc(-n2ccnc2[C@H](Cc2ccccc2)NC(=O)NS(=O)(=O)c2ccccc2C)c(C)c1 | 100 to 1000 nM
* COc1ccc(-n2ccnc2[C@H](Cc2ccccc2)NC(=O)NS(=O)(=O)c2ccccc2C)cc1OC | < 100 nM
* COc1ccc(Cn2ccnc2[C@H](Cc2ccccc2)NC(=O)NS(=O)(=O)c2ccccc2C)cc1 | 100 to 1000 nM
* Cc1ccccc1S(=O)(=O)NC(=O)N[C@@H](Cc1ccccc1)c1nccn1-c1ccc2c(c1)OCO2 | < 100 nM
* Cc1ccccc1S(=O)(=O)NC(=O)N[C@@H](Cc1cc(F)cc(F)c1)c1ncccc1-c1ccc(CN2CCOCC2)s1 [Example 122, TFA] | 100 to 1000 nM
* CC(=O)Nc1ccc(-n2ccnc2[C@H](Cc2ccccc2)NC(=O)NS(=O)(=O)c2ccccc2C)cc1 | 100 to 1000 nM
* Cc1ccccc1S(=O)(=O)NC(=O)N[C@@H](Cc1cc(F)cc(F)c1)c1ncccc1-c1ccc2ccncc2c1 | 100 to 1000 nM

----------
CC50 at 4 day values for the compounds below.
# assay_info: Compound cytotoxicity (CC50), XTT-based colorimetric assay
# Assay type: cell-based
# test_parameters: human; uninfected MT2 cells, day 4, XTT assay
Where a name gives a salt, the structure may show the parent alone.
experimental_endpoint: CC50 at 4 day

- COC(=O)Nc1ccc(-n2ccnc2[C@H](Cc2ccccc2)NC(=O)NS(=O)(=O)c2ccc(C)cc2)cc1 [Example 38]: > 100 µM
- COC(=O)Nc1ccc(-c2cccnc2[C@H](Cc2cc(F)cc(F)c2)NC(=O)NS(=O)(=O)c2ccccc2Cl)cc1 [Example 91, TFA]: > 100 µM
- COc1ccc(-c2ccc(-n3ccnc3[C@H](Cc3ccccc3)NC(=O)NS(=O)(=O)c3ccccc3C)cc2)cn1 [Example 63]: > 100 µM
- Cc1ccccc1S(=O)(=O)NC(=O)N[C@@H](Cc1cc(F)cc(F)c1)c1ncccc1-c1ccc(F)c(C(N)=O)c1 [Example 97, TFA]: > 100 µM
- Cc1cccc(-n2ccnc2[C@H](Cc2ccccc2)NC(=O)NS(=O)(=O)c2ccccc2C)c1 [Example 23]: > 100 µM
- Cc1ccccc1S(=O)(=O)NC(=O)N[C@@H](Cc1cc(F)cc(F)c1)c1ncccc1-c1ccnc(F)c1C [Example 126, TFA]: > 33 µM
- NC(=O)c1cc(-c2cccnc2[C@@H](Cc2cc(F)cc(F)c2)NC(=O)NS(=O)(=O)c2ccccc2Cl)ccc1F [Example 109, TFA]: > 100 µM
- Cc1nc2cc(-n3ccnc3[C@H](Cc3ccccc3)NC(=O)NS(=O)(=O)c3ccccc3F)ccc2s1 [Example 73]: > 100 µM
- Cc1ccccc1S(=O)(=O)NC(=O)N[C@@H](Cc1ccccc1)c1nccn1-c1ccc(-c2ccoc2C)cc1 [Example 62]: > 100 µM
- O=C(N[C@@H](Cc1cc(F)cc(F)c1)c1ncccc1-c1ccc2ccncc2c1)NS(=O)(=O)c1ccccc1Cl [Example 92, TFA]: > 100 µM
- COc1cccc(-n2ccnc2[C@H](Cc2ccccc2)NC(=O)NS(=O)(=O)c2ccccc2C)c1 [Example 9]: > 100 µM
- COC(=O)Nc1ccc(-c2cccnc2[C@H](Cc2cc(F)cc(F)c2)NC(=O)NS(=O)(=O)c2ccccc2C)cc1 [Example 89]: > 100 µM
- COc1ccc(-c2cccnc2C(Cc2cc(F)cc(F)c2)NC(=O)NS(=O)(=O)c2ccccc2Cl)cc1 (stereo in doubt) [Example 114, TFA]: > 100 µM
- COc1ccc(-c2cccnc2[C@H](Cc2cc(F)cc(F)c2)NC(=O)NS(=O)(=O)c2ccccc2C)cc1 [Example 96, TFA]: > 33 µM
- C=CCOc1cccc(-n2ccnc2[C@H](Cc2ccccc2)NC(=O)NS(=O)(=O)c2ccccc2C)c1 [Example 17]: > 33 µM
- Cc1ccccc1S(=O)(=O)NC(=O)N[C@@H](Cc1ccccc1)c1nccn1-c1ccc(-c2ccoc2)cc1 [Example 59]: > 33 µM
- COC(=O)Nc1ccc(-n2ccnc2[C@H](Cc2ccccc2)NC(=O)NS(=O)(=O)c2cccc3ccccc23)cc1 [Example 3]: > 100 µM
- Cc1cc(-c2cccnc2[C@@H](Cc2cc(F)cc(F)c2)NC(=O)NS(=O)(=O)c2ccccc2Cl)c(C)s1 [Example 104, TFA]: > 33 µM
- Cc1ccccc1S(=O)(=O)NC(=O)N[C@@H](Cc1cc(F)cc(F)c1)c1ncccc1-c1cccc(CO)c1 [Example 121, TFA]: > 100 µM
- COc1ccc(-n2ccnc2[C@H](Cc2ccccc2)NC(=O)NS(=O)(=O)c2ccccc2C)cc1OC [Example 10]: > 100 µM
- COc1ccc(-n2ccnc2[C@H](Cc2ccccc2)NC(=O)NS(=O)(=O)c2ccccc2C)c(C)c1 [Example 8]: > 100 µM
- COc1ccc(Cn2ccnc2[C@H](Cc2ccccc2)NC(=O)NS(=O)(=O)c2ccccc2C)cc1 [Example 40]: > 33 µM

----------
# assay_info: Compound cytotoxicity (CC50), XTT-based colorimetric assay
# Format: cell-based
# test_parameters: human; uninfected MT2 cells, day 4, XTT assay
Counter-ions that a name gives are not always drawn.
CC50 at 4 day values for the molecules below.
experimental_endpoint: CC50 at 4 day

* COC(=O)Nc1ccc(-n2ccnc2[C@H](Cc2ccccc2)NC(=O)NS(=O)(=O)c2ccccc2OC(F)(F)F)cc1 | > 100 µM
* Cc1ccccc1S(=O)(=O)NC(=O)N[C@@H](Cc1ccccc1)c1nccn1-c1ccc([N+](=O)[O-])cc1 | > 100 µM
* O=C(N[C@@H](Cc1ccccc1)c1nccn1-c1ccc(-c2ccoc2)cc1)NS(=O)(=O)c1ccccc1F | > 100 µM
* CCOc1cccc(-n2ccnc2[C@H](Cc2ccccc2)NC(=O)NS(=O)(=O)c2ccccc2C)c1 | > 100 µM
* COC(=O)Nc1ccc(-n2ccnc2[C@H](Cc2ccccc2)NC(=O)NS(=O)(=O)c2ccc(C)s2)cc1 | > 100 µM
* Cc1ccccc1S(=O)(=O)NC(=O)N[C@@H](Cc1ccccc1)c1nccn1-c1ccc(N)cc1 | > 100 µM
* Cc1ccccc1S(=O)(=O)NC(=O)N[C@@H](Cc1cc(F)cc(F)c1)c1ncccc1-c1ccc(CN(C)C)cc1 [Example 120, TFA] | > 100 µM
* Cc1ccccc1S(=O)(=O)NC(=O)N[C@@H](Cc1ccccc1)c1nccn1-c1ccc2sccc2c1 | 39 µM
* COC(=O)Nc1ccc(-c2cccnc2[C@@H](Cc2ccccc2)NC(=O)NS(=O)(=O)c2ccccc2Cl)cc1 [Example 111, TFA] | 82 µM
* Cc1ccccc1S(=O)(=O)NC(=O)N[C@@H](Cc1ccccc1)c1nccn1-c1ccccc1 | > 100 µM
* Cc1ccccc1S(=O)(=O)NC(=O)NC(Cc1ccccc1)c1ncccc1Br (centres unmarked) [Example 116, TFA] | > 100 µM
* Cc1ccccc1S(=O)(=O)NC(=O)N[C@@H](Cc1cc(F)cc(F)c1)c1ncccc1-c1ccc(-c2cccs2)cc1 [Example 125, TFA] | 38 µM
* Cc1ccccc1S(=O)(=O)NC(=O)N[C@@H](Cc1cc(F)cc(F)c1)c1ncccc1-c1ccc(C#N)cc1 [Example 128, TFA] | 80 µM
* CCOc1ccc(-n2ccnc2[C@H](Cc2ccccc2)NC(=O)NS(=O)(=O)c2cccc(Cl)c2Cl)cc1 | > 100 µM
* Cc1ccccc1S(=O)(=O)NC(=O)N[C@H](Cc1cc(F)cc(F)c1)c1ncccc1Br [Example 107, TFA] | > 33 µM
* NC(=O)c1cc(-c2cccnc2[C@H](Cc2cc(F)cc(F)c2)NC(=O)NS(=O)(=O)c2ccccc2Cl)ccc1F [Example 95, TFA] | > 100 µM
* COC(=O)Nc1ccc(-n2ccnc2[C@H](Cc2ccccc2)NC(=O)NS(=O)(=O)c2ccccc2Cl)cc1 | > 100 µM
* Cc1ccccc1S(=O)(=O)NC(=O)N[C@@H](Cc1ccccc1)c1nccn1-c1ccc(F)cc1 | > 100 µM
* CCOc1ccc(-c2cccnc2[C@H](Cc2ccccc2)NC(=O)NS(=O)(=O)c2ccccc2C)cc1 | > 100 µM
* COc1c(F)cc(F)cc1-c1cccnc1[C@H](Cc1cc(F)cc(F)c1)NC(=O)NS(=O)(=O)c1ccccc1C | > 50 µM
* O=C(N[C@H](Cc1cc(F)cc(F)c1)c1ncccc1-c1ccc2ccncc2c1)NS(=O)(=O)c1ccccc1Cl [Example 99, TFA] | > 33 µM
* Cc1ccc(-n2ccnc2[C@H](Cc2ccccc2)NC(=O)NS(=O)(=O)c2ccccc2C)cc1 | > 100 µM
* COC(=O)Nc1ccc(-n2ccnc2[C@H](Cc2ccccc2)NC(=O)NS(=O)(=O)c2ccccc2C)cc1 | > 100 µM
* Cc1cc(-c2cccnc2[C@H](Cc2cc(F)cc(F)c2)NC(=O)NS(=O)(=O)c2ccccc2C)c(C)s1 [Example 133, TFA] | 71 µM
* CCOc1ccc(-n2ccnc2[C@H](Cc2ccccc2)NC(=O)NS(=O)(=O)c2ccccc2C)cc1Cl | > 100 µM
* Cc1ccccc1S(=O)(=O)NC(=O)N[C@@H](Cc1ccccc1)c1nccn1-c1cccc(-n2cccc2)c1 | > 100 µM
* Cc1ccccc1S(=O)(=O)NC(=O)N[C@@H](Cc1ccccc1)c1nccn1-c1cnn(-c2ccccc2)c1 | > 100 µM
* CCOc1ccc(-c2cccnc2[C@H](Cc2cc(F)cc(F)c2)NC(=O)NS(=O)(=O)c2ccccc2C)cc1 [Example 94, TFA] | > 100 µM
* CCOc1ccc(-c2cccnc2[C@H](Cc2cc(F)cc(F)c2)NC(=O)NS(=O)(=O)c2ccccc2C)cc1F [Example 123, TFA] | 55 µM
